testDescription: TOX21_p53_BLA_p2_viability: Viability Assessment in the Tox21 HCT-116 p53 Agonism Beta-lactamase Assay, Phase 2 (AID 2283591);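 note: compound exposure lasted 16 h at 37 °C; actives lower the ATP signal meaning cytotoxicity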
Inconclusive results are not listed. The source made the active and inactive calls. Rule for the calls: active = hit-call score of the fitted dose curve at least 0.9, where 1 is the maximum; inconclusive = response in the unintended direction; inactive = score below 0.9.
measure: outcome

Answered examples (10):
molecule | outcome
CC(C)=CCl | inactive
CCOC(=O)c1ccc(C)cc1 | inactive
CCCCCCCCCCCC(=O)OCC | inactive
CCCCOC(=O)C(C)CC (configuration not stated) | inactive
CC1OC(=O)C(C)OC1=O (configuration not stated) | inactive
CC(C)(CO)COC(=O)C(C)(C)CO | inactive
O=c1c(O)c(-c2ccc(O)cc2O)oc2cc(O)cc(O)c12 | inactive
Cc1cc(C)n(CO)n1 | inactive
CC(=O)C(C)C | inactive
c1ccc2c(c1)[nH]c1ccccc12 | inactive

The molecule identified as CC(=O)OC1CCCCC1C(C)(C)C (configuration not stated) registered its outcome at inactive

The molecule identified as CC(C)CCCCCOC(=O)CS registered its outcome at inactive

The molecule identified as CCc1occc(=O)c1O registered its outcome at inactive

The molecule identified as CC(C)OC(=O)c1ccccc1 registered its outcome at inactive
